Assay: NCI Yeast Anticancer Drug Screen. Data for the mlh1 rad18 strain (AID 175)
Settings: S. cerevisiae mlh1 rad18 strain growth inhibition; at 50.0 µM; active compounds read high
About 79,000 compounds went through this panel and 15% of them were active in at least one assay; those are over-represented in the sample as a whole.
Below, each entry is listed alongside its reported growth inhibition.
Could you give me the number in %? Just the number is fine.

Before answering, review these 2 worked examples.
compound: CN1CCOC(c2ccccc2)c2ccsc2CC1 (stereo unspecified)
growth inhibition, %: 16.8
--
compound: O.O=[Se](=O)(O)O.[NH-]C1CCCCC1[NH-].[Pt+2] (stereo unspecified)
growth inhibition, %: -55.5

Task: Any idea what its growth inhibition is? The compound is COc1cc2c(cc1O)C(=O)O[C@@H]1CC=C3CCN(C)[C@H]3[C@H]21
Output: 19.8

Task: Can you share its growth inhibition? I mean this compound: C1CC[N-]CC1.C1CC[N-]CC1.C1CC[N-]CC1.C1CC[N-]CC1.[Cl][Rh][Cl]
Output: -18.4

Task: Need growth inhibition of O=C(O)C(=O)O.[Ti].[c-]1[c-][c-][cH-][c-]1.[c-]1[c-][c-][cH-][c-]1 , thanks.
Output: 29.7

---

Assay: NCI Yeast Anticancer Drug Screen. Data for the mec2-1 strain (AID 157)
Conditions: S. cerevisiae mec2-1 strain, at 5.0 µM (retest, dose inferred, filed as 0.5), active compounds read high
Protocol: Growth inhibition of yeast strains with defined genetic alterations is measured as a screen for potential anti-cancer activity. Selected strains with alterations in DNA damage repair or cell cycle control were exposed to compounds and growth inhibition was measured relative to vehicle treated controls. The strain used in this assay is mec2-1
The panel holds about 79,000 compounds, 15% with a hit somewhere; the sample as a whole holds those more often.
Given measured growth inhibition, output criterion met if it is greater than or equal to 10% and criterion not met if not.

molecule: CCCCOOC(=O)c1ccccc1C(=O)OOCCCC
assignedCategory: criterion met

Let us examine a further case.
Task: Dear colleague, could you confirm whether CC1c2c(n(C)c3ccccc23)C2CCC3(CO3)C1N2Cc1ccccc1 (stereo unspecified) has growth inhibition at or above 10%?
Output: criterion met

---

Test: NCI Yeast Anticancer Drug Screen. Data for the mlh1 rad18 strain (AID 175)
Conditions: S. cerevisiae mlh1 rad18 strain growth inhibition; at 50.0 µM (retest, dose inferred, filed as 5.0)
About 79,000 compounds went through this panel and 15% of them were active in at least one assay; those are over-represented in the sample as a whole. The source made the active and inactive calls. Rule as the data show it: active = growth inhibition above about 70%; inactive = the rest.
Response enum: class 1 = active, class 0 = inactive

These recorded examples may help you get a feel for the data.
compound: CCCC(C)c1ccccc1OP(=S)(S)Oc1ccccc1C(C)CCC (stereo unspecified)
assignedCategory: class 0
//
compound: CC(C)C12C=C3CCC4C(C)(C(=O)O)CCCC4(C)C3(CC1)OO2 (stereo unspecified)
assignedCategory: class 1
//
compound: O=C(C[n+]1ccccc1)C1CCc2ccccc2C1 (stereo unspecified)
assignedCategory: class 0

Task: What is the recorded call for this compound in the test? O=S(=O)(F)c1ccc(Cl)cc1
Output: class 1

Task: Tell me the recorded outcome of this test for CN(C)c1ccc(C(c2c(O)c3ccccc3oc2=O)c2c(O)c3ccccc3oc2=O)cc1 .
Output: class 0

Task: Which outcome was assigned to COc1c(Br)cc(/C=C/[N+](=O)[O-])cc1Br in this test?
Output: class 1
